experimentNotes: protein stability index of a GFP-peptide fusion (yeast GPS) (PSI 1-4); higher = more stable; sorted into four equal gates, so the index is relative within each strain
assayConditions: san1∆

{"residueString": "EKRHKNVPVHVSPAFRV [RPS11A]", "protein stability index": 2.9}
{"residueString": "AGEFGLKNKKEIYRISF [RPS9A]", "protein stability index": 3.08}
{"residueString": "GSSGGVIRMVVLTAAGV [PRE3]", "protein stability index": 2.64}
{"residueString": "KVLAAHTKFEVAIGLNG [RRP40]", "protein stability index": 2.34}
{"residueString": "QITIEPGVDVEVVVASN [RPS20]", "protein stability index": 3.01}
{"residueString": "PAEHPFISAARYKPKSH [RPC37]", "protein stability index": 2.66}
{"residueString": "FEGNVATKAINGCIFTL [PRP8]", "protein stability index": 1.97}
{"residueString": "SQTMAETYVASYVVPRL [ECM29]", "protein stability index": 1.9}
{"residueString": "VGVDQLSIELEGGKNQA [YJL039C/NUP192]", "protein stability index": 3.06}
{"residueString": "IPYAAKLLFQELLSMNI [RET1]", "protein stability index": 1.31}
{"residueString": "HINKKSQLDLFLRTMKL [GRR1]", "protein stability index": 1.21}
{"residueString": "DFTLIPRMASVFENYVK [CDC53]", "protein stability index": 2.71}
{"residueString": "FSRHAQQQTSTFNSKPV [SIR4]", "protein stability index": 2.07}
{"residueString": "VIVLSNISHLLEIASSI [SWI1]", "protein stability index": 2.07}

Data origin: the supplement of paper PMC9732359
